assayInfo: Total Cmax in female C57BL/6J mouse plasma at 30 mg/kg, po measured after 24 hrs by UPLC-MS/MS analysis
Format: ADME, organism-based
Hi, to clarify the labels: 1.0 covers Cmax from 30 µg/mL upward, 0.0 covers anything below 30 µg/mL.

The examples below pair each entry with its known result.
> print(dat)
                                  cpdsmiles  category
1  Cc1noc(-c2ccc(NC(=O)[C@H]3CCCC[C@@H]3C(=O)O)cn2)c1NC(=O)O[C@H](C)c1ccccc1Cl       0.0
2  Cc1nc(-c2cnn(C)c2NC(=O)O[C@H](C)c2ccccc2Cl)ccc1NC(=O)[C@H]1CCCC[C@@H]1C(=O)O       1.0
3  Cc1nc(-c2nnn(C)c2NC(=O)O[C@H](C)c2ccccc2Cl)ccc1NC(=O)[C@H]1CCCC[C@@H]1C(=O)O       0.0
4  Cc1nc(-c2onc(C)c2NC(=O)O[C@H](C)c2ccccc2Cl)ccc1NC(=O)[C@H]1CCCC[C@@H]1C(=O)O       1.0
5  Cc1nc(-c2onc(C)c2NC(=O)O[C@H](C)c2ccccc2)ccc1NC(=O)[C@H]1CCCC[C@@H]1C(=O)O       1.0

// switching to the query molecule
// inclusive: Cmax at least 30 µg/mL? input: Cc1nc(-c2onc(C)c2Nc2cncc(OC(C)C)n2)ccc1NC(=O)[C@H]1CCCC[C@@H]1C(=O)O 1.0

---

assayInfo: Total AUClast in female C57BL/6J mouse lung at 30 mg/kg, po measured after 24 hrs by UPLC-MS/MS analysis
Format: ADME, organism-based
assayConditions: in vivo
assayEndpoint: AUClast
Write the numeric value and follow it with the unit.

Example molecules with recorded AUClast:
> print(dat)
                                  cpdsmiles          result
1  Cc1nc(-c2cnn(C)c2NC(=O)O[C@H](C)c2ccccc2Cl)ccc1NC(=O)[C@H]1CCCC[C@@H]1C(=O)O   17100 h/ng/mL
2  Cc1nc(-c2onc(C)c2NC(=O)O[C@H](C)c2ccccc2)ccc1NC(=O)[C@H]1CCCC[C@@H]1C(=O)O   57300 h/ng/mL
3  Cc1nc(-c2onc(C)c2NC(=O)O[C@H](C)c2ccccc2Cl)ccc1NC(=O)[C@H]1CCCC[C@@H]1C(=O)O  123000 h/ng/mL
4  Cc1nc(-c2onc(C)c2Nc2cncc(OC(C)C)n2)ccc1NC(=O)[C@H]1CCCC[C@@H]1C(=O)O   24800 h/ng/mL

Dear colleague, could you please provide AUClast for the molecules listed below?
1. Cc1nc(-c2nnn(C)c2NC(=O)O[C@H](C)c2ccccc2Cl)ccc1NC(=O)[C@H]1CCCC[C@@H]1C(=O)O
2. Cc1noc(-c2ccc(NC(=O)[C@H]3CCCC[C@@H]3C(=O)O)cn2)c1NC(=O)O[C@H](C)c1ccccc1Cl

4040 h/ng/mL
8000 h/ng/mL

---

assayInfo: Metabolic stability in human liver microsomes assessed as intrinsic clearance measured per mg of protein at 0.5 uM measured upto 45 mins in presence of NADPH regenerating system by HPLC-MS/MS analysis
Assay type: ADME, Microsome
assayConditions: read-out: CLH
assayEndpoint: microsomal CLint at 0.5 µM (µL/min/mg)
Give bare numbers, in µL/min/mg.

Example compounds with recorded microsomal CLint at 0.5 µM:
> print(dat)
                                  cpdsmiles  numericreadout
1  CCC[C@@H](C)OC(=O)Nc1c(C)noc1-c1ccc(NC(=O)[C@H]2CCCC[C@@H]2C(=O)O)c(C)n1             3.1
2  Cc1noc(-c2ccc(NC(=O)[C@H]3CCCC[C@@H]3C(=O)O)cc2)c1NC(=O)O[C@H](C)c1ccccc1Cl            2.84
3  Cc1noc(-c2ccc(NC(=O)[C@H]3CCCC[C@@H]3C(=O)O)c(F)n2)c1NC(=O)O[C@H](C)c1ccccc1Cl               1
4  Cc1nc(-c2onc(C)c2CNC(=O)O[C@H](C)c2ccccc2Cl)ccc1NC(=O)[C@H]1CCCC[C@@H]1C(=O)O               7
5  Cc1nc(-c2onc(C)c2NC(=O)O[C@H](C)c2ccccn2)ccc1NC(=O)[C@H]1CCCC[C@@H]1C(=O)O             0.3

Dear colleague, could you please provide microsomal CLint at 0.5 µM for the compounds listed below?
1. Cc1nc(-c2snc(C)c2NC(=O)O[C@H](C)c2ccccc2Cl)ccc1NC(=O)[C@H]1CCCC[C@@H]1C(=O)O
2. Cc1nc(-c2nnn(C)c2NC(=O)O[C@H](C)c2ccccc2Cl)ccc1NC(=O)[C@H]1CCCC[C@@H]1C(=O)O

1: 7.6; 2: 0.4

---

assayInfo: Tlast in female C57BL/6J mouse lung at 30 mg/kg, po measured after 24 hrs by UPLC-MS/MS analysis
Format: ADME, organism-based
assayConditions: in vivo
For each entry below, report its Tlast value.
One number for each entry, in h.

Example compounds with recorded Tlast:
> print(dat)
                                  cpdsmiles  assayendpoint  unitspec  numericreadout
1  Cc1nc(-c2onc(C)c2NC(=O)O[C@H](C)c2ccccc2)ccc1NC(=O)[C@H]1CCCC[C@@H]1C(=O)O          Tlast         h               8
2  Cc1nc(-c2onc(C)c2NC(=O)O[C@H](C)c2ccccc2Cl)ccc1NC(=O)[C@H]1CCCC[C@@H]1C(=O)O          Tlast         h              24
3  Cc1nc(-c2onc(C)c2Nc2cncc(OC(C)C)n2)ccc1NC(=O)[C@H]1CCCC[C@@H]1C(=O)O          Tlast         h               8
4  Cc1nc(-c2nnn(C)c2NC(=O)O[C@H](C)c2ccccc2Cl)ccc1NC(=O)[C@H]1CCCC[C@@H]1C(=O)O          Tlast         h              24

Dear colleague, could you please provide Tlast for the compounds listed below?
1. Cc1noc(-c2ccc(NC(=O)[C@H]3CCCC[C@@H]3C(=O)O)cn2)c1NC(=O)O[C@H](C)c1ccccc1Cl
2. Cc1nc(-c2cnn(C)c2NC(=O)O[C@H](C)c2ccccc2Cl)ccc1NC(=O)[C@H]1CCCC[C@@H]1C(=O)O

8
8

---

assayInfo: Clearance in female C57BL/6J mouse at 2 mg/kg, iv measured after 24 hrs by UPLC-MS/MS analysis
Format: ADME, organism-based
assayConditions: in vivo
Hi, to clarify the labels: Met covers clearance from 2 mL/min/kg upward, Not met covers anything below 2 mL/min/kg.

The examples below pair each entry with its known result.
> print(dat)
                                  cpdsmiles  category
1  Cc1nc(-c2nnn(C)c2NC(=O)O[C@H](C)c2ccccc2Cl)ccc1NC(=O)[C@H]1CCCC[C@@H]1C(=O)O       Met
2  Cc1nc(-c2cnn(C)c2NC(=O)O[C@H](C)c2ccccc2Cl)ccc1NC(=O)[C@H]1CCCC[C@@H]1C(=O)O       Met
3  Cc1noc(-c2ccc(NC(=O)[C@H]3CCCC[C@@H]3C(=O)O)cn2)c1NC(=O)O[C@H](C)c1ccccc1Cl       Met
4  Cc1nc(-c2onc(C)c2NC(=O)O[C@H](C)c2ccccc2Cl)ccc1NC(=O)[C@H]1CCCC[C@@H]1C(=O)O   Not met

// switching to the query molecule
// inclusive: clearance at least 2 mL/min/kg? input: Cc1nc(-c2onc(C)c2NC(=O)O[C@H](C)c2ccccc2)ccc1NC(=O)[C@H]1CCCC[C@@H]1C(=O)O Not met

---

measurementTarget: Lysophosphatidic acid receptor 3 (Homo sapiens)
Sequence (Q9UBY5 whole entry): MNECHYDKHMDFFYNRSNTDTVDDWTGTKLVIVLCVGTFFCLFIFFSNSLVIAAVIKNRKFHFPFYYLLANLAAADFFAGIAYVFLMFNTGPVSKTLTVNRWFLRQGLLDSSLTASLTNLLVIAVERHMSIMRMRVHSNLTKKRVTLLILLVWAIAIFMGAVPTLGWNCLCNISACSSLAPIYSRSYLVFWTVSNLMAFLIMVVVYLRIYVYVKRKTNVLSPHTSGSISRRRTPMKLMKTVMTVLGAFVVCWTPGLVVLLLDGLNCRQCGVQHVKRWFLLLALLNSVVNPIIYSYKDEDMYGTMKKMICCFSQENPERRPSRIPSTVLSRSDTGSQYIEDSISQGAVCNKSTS
assayInfo: Antagonist activity at human LPA3 expressed in human HeLa cells incubated for 30 mins by FLIPR-based calcium mobilization assay
assayEndpoint: pIC50
Numbers only, as −log10 of the molar value.

Value lookup for pIC50; key = Cc1nc(-c2onc(C)c2NC(=O)O[C@H](C)c2ccccc2Cl)ccc1NC(=O)[C@H]1CCCC[C@@H]1C(=O)O 4.43

---

measurementTarget: Lysophosphatidic acid receptor 1 (Homo sapiens)
Sequence (Q92633 whole entry): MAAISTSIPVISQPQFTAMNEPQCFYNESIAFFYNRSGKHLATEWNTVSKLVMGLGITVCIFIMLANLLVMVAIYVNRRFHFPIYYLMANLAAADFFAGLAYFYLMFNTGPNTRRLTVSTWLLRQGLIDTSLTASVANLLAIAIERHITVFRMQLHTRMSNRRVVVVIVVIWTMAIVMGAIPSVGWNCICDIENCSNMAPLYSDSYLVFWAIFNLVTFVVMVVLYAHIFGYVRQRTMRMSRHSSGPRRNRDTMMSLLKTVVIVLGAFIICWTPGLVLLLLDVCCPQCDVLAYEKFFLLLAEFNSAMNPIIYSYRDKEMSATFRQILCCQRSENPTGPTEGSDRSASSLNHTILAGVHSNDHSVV
assayInfo: Antagonist activity at human LPA1 expressed in CHO cells incubated for 30 mins by FLIPR-based calcium mobilization assay
assayEndpoint: pIC50
Give bare numbers, as −log10 of the molar value.

Value lookup for pIC50; key = Cc1nc(-c2nnn(C)c2NC(=O)O[C@H](C)c2ccccc2Cl)ccc1NC(=O)[C@H]1CCCC[C@@H]1C(=O)O 7.50

---

measurementTarget: UniProtKB O95342
Sequence (O95342 whole entry): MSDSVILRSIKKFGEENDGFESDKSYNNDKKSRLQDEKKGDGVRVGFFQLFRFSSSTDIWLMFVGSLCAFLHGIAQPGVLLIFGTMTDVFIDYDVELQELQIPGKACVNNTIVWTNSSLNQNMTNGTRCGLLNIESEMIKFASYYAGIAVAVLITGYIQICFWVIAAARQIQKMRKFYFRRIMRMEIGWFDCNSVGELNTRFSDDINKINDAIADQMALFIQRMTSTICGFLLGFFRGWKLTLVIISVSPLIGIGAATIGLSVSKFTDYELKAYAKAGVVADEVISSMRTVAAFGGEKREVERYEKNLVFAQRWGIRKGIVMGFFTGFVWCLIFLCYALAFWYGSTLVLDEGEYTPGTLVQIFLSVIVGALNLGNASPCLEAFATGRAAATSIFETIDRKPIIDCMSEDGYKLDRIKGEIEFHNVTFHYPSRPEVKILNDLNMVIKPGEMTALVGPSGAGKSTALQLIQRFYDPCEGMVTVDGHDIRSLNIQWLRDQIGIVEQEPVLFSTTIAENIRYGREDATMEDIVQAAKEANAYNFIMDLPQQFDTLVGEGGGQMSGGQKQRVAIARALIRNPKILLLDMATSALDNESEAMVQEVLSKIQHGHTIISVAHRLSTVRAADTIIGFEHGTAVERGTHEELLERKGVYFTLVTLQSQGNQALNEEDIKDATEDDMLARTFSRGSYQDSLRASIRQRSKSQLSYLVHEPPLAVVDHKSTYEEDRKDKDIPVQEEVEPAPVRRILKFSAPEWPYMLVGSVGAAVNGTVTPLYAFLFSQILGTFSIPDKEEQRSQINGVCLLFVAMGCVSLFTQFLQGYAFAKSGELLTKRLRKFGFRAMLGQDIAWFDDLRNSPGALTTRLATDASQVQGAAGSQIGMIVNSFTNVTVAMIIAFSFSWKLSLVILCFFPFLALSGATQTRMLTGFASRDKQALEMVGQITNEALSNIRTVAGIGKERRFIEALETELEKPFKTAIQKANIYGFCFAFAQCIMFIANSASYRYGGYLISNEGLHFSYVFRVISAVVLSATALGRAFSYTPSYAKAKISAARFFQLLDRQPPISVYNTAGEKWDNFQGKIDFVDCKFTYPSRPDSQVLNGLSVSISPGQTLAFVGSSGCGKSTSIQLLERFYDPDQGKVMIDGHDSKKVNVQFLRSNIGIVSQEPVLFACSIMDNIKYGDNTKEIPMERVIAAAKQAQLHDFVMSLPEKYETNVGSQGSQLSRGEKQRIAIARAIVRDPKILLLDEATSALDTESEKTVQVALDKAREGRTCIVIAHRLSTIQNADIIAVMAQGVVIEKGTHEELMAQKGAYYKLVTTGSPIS
assayInfo: Inhibition of BSEP in cryopreserved sandwich-cultured human hepatocytes by measuring reduction in TCA biliary clearance using taurocholic acid as substrate at 50 uM relative to control
Format: cell-based, Hepatocyte
assayConditions: cryopreserved sandwich-cultured hepatocytes, probe taurocholic acid
For each entry below, report its inhibition at 50 µM value.
Numbers only, in %.

Example compounds with recorded inhibition at 50 µM:
> print(dat)
                                  cpdsmiles  measurementtarget        assayendpoint  unitspec  numericreadout
1  Cc1nc(-c2nnn(C)c2NC(=O)O[C@H](C)c2ccccc2Cl)ccc1NC(=O)[C@H]1CCCC[C@@H]1C(=O)O   UniProtKB O95342  inhibition at 50 µM         %              16
2  Cc1noc(-c2ccc(NC(=O)[C@H]3CCCC[C@@H]3C(=O)O)cn2)c1NC(=O)O[C@H](C)c1ccccc1Cl   UniProtKB O95342  inhibition at 50 µM         %              50

Dear colleague, could you please provide inhibition at 50 µM for the compounds listed below?
1. Cc1nc(-c2cnn(C)c2NC(=O)O[C@H](C)c2ccccc2Cl)ccc1NC(=O)[C@H]1CCCC[C@@H]1C(=O)O
2. Cc1cc(NC(=O)[C@H]2CCCC[C@@H]2C(=O)O)c(C)nc1-c1onc(C)c1NC(=O)O[C@H](C)c1ccccc1Cl
3. Cc1noc(-c2ccc(NC(=O)[C@H]3CCCC[C@@H]3C(=O)O)cc2)c1NC(=O)O[C@H](C)c1ccccc1Cl
4. Cc1nc(-c2onc(C)c2NC(=O)O[C@H](C)c2ccccc2Cl)ccc1NC(=O)[C@H]1CCCC[C@@H]1C(=O)O
5. Cc1nc(-c2onc(C)c2Nc2cncc(OC(C)C)n2)ccc1NC(=O)[C@H]1CCCC[C@@H]1C(=O)O

28
73
72
50
18

Sourced from ChEMBL document CHEMBL6153155
